Taken from the supplement of paper PMC10567573.

B1: ANKRD17 (parent)
chain: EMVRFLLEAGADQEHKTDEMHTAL

# Variants of: B1
# Test name: protein stability index of a GFP-peptide fusion (GPS, HEK-293T) (PSI 1-6); higher = more stable;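 also: lentivirally expressed fusions sorted by FACS into six bins by GFP to DsRed ratio, PSI derived from sequencing read proportions per bin multiplied by bin number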
# Experimental conditions: c terminus: a fixed tail appended
Readout kind: protein stability index
Answer with a bare number; do not write a unit.

Some solved cases for reference:
| Mutant designation | Assay result |
| --- | --- |
| T17G | 2.94 |
| Q13S | 2.94 |

# next variant below
## Task Value lookup for protein stability index; key = A23S
## Result 3.05
